biological target: human recombinant COX2 (hCOX2) (UniProt P35354); assay: LCMS-based COX2 enzymatic inhibition assay (PGE2 quantification); format: biochemical; design: COX2 2 minutes pge2/pge2d4 area ratio Avg; other: 2 minutes; readout pge2/pge2d4 area ratio; average; COX2 2 minutes pge2/pge2d4 area ratio Avg; LLE; average LLE; COX2 2 minutes pge2 area (counts) Avg; readout pge2 area (counts); other: 2 min; "ovine COX2 (oCOX2), human recombinant COX2 (hCOX2)"; settings: 2 minutes; readout pge2/pge2d4 area ratio; average LLE
metric: COX2 2 minutes pge2/pge2d4 area ratio Avg. LLE

{"compound": "CS(=O)(=O)c1ccc(-n2ccc3ccc(OCc4cccs4)nc32)cc1", "value measured": 2.212}
{"compound": "COc1ncc(NCc2ccccc2)nc1-c1ccc(S(C)(=O)=O)cc1", "value measured": 5.235}
{"compound": "CSc1ccc(-c2cncc(OCc3cccs3)n2)cc1", "value measured": 1.5751}
{"compound": "CS(=O)(=O)c1ccc(-c2ncc3ccn(Cc4cccs4)c3n2)cc1", "value measured": 3.165}
{"compound": "COc1ncc(NCc2cccs2)cc1-c1ccc(S(C)(=O)=O)cc1", "value measured": 2.588}
{"compound": "Cc1ccsc1CNc1cccc(-c2ccc(S(C)(=O)=O)cc2)n1", "value measured": 4.522}
{"compound": "COc1ncc(NCc2cccs2)nc1-c1ccc(S(C)(=O)=O)cc1", "value measured": 5.399}
{"compound": "COc1cc(-c2ccc(S(C)(=O)=O)cc2)cc(NCc2cccs2)n1", "value measured": 3.727}
{"compound": "COc1cnc(-c2ccc(S(C)(=O)=O)cc2)nc1OCc1cccs1", "value measured": 3.569}
{"compound": "COc1ncc(NCc2cccs2)nc1-c1ccc(S(C)(=O)=O)nc1", "value measured": 5.902}
{"compound": "CS(=O)(=O)c1ccc(-c2cnc3cn(Cc4cccs4)nc3n2)cc1", "value measured": 2.844}
{"compound": "CS(=O)(=O)c1ccc(-c2ccc3ccn(Cc4cccs4)c3n2)cc1", "value measured": 3.218}
{"compound": "COc1ncc(-c2ccc(S(C)(=O)=O)cc2)nc1NCc1ccccn1", "value measured": 4.221}
